These measurements were taken from ChEMBL document CHEMBL3352769.

# Measured on: Diacylglycerol lipase-alpha (Homo sapiens, UniProt Q9Y4D2)
# Sequence (Q9Y4D2 whole entry): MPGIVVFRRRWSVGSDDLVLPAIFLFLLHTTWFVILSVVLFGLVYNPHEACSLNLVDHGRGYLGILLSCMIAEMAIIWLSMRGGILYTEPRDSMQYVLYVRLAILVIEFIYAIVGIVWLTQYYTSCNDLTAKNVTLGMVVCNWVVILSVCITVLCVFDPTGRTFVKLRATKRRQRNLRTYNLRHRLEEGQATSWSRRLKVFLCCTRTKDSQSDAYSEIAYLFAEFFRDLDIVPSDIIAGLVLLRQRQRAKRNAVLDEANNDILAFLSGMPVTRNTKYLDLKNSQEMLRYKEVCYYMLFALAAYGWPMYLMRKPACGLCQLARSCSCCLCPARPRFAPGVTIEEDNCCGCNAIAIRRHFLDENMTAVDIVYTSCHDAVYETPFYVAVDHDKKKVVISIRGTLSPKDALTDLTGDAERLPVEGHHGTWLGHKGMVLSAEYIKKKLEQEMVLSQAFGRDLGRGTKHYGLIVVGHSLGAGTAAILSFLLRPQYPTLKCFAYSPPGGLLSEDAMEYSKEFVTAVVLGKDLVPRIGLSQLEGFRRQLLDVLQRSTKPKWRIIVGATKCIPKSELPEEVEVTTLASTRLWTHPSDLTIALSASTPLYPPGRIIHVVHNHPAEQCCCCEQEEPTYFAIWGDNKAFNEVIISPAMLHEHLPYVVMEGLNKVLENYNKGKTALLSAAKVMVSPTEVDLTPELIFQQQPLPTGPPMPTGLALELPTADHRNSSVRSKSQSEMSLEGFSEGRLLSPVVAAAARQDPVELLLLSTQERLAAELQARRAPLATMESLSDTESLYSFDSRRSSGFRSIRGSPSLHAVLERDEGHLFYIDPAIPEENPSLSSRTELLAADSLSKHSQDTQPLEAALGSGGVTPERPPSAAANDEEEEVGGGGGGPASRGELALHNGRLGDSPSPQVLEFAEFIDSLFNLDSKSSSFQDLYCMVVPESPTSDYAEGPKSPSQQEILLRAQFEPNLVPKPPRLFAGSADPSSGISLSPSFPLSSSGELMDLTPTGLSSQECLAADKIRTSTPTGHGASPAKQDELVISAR
# Experiment: Inhibition of human DAGLalpha expressed in HEK293T cell membranes
pIC50: −log10 of the molar value.
Endpoint name: pIC50

1: CC1(C)CCc2cc(S(=O)(=O)N(CC(=O)O)Cc3cccc(Oc4ccc(C(F)(F)F)cn4)c3)ccc2O1
2: CC1(C)CCc2cc(S(=O)(=O)N(CCN)Cc3ccc(Oc4ccccc4)cc3)ccc2O1
3: O=C(O)CN(Cc1ccc(Oc2ccccc2)cc1)S(=O)(=O)c1ccc(Cl)cc1
4: O=C(O)CN(Cc1cccc(Oc2ccccc2)c1)S(=O)(=O)c1c(Cl)cccc1Cl
### Prompt Given 4 compounds, produce a descending ranking by pIC50. Write the labels, ordered according to the request.
### Response 3, 1, 2, 4
(3: 7.18, 1: 6.84, 2: 6.29, 4: 5.80)

1: O=C(O)CN(Cc1cccc(Oc2ccccc2)c1)S(=O)(=O)c1ccc(Cl)cc1
2: O=C(O)CN(Cc1ccc(Oc2ccc(C(F)(F)F)cn2)cc1)S(=O)(=O)c1ccc(Cl)cc1
### Prompt // which entry reports the smaller pIC50, 1 or 2 ? Response format: the label of the selected entry.
### Response 2
